The measured values listed here are drawn from paper PMC10397247.

Molecular target: T1, 4H930-AA
T1 chain: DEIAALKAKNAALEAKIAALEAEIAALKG
Test: two-hybrid library CCmax;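 note: natural log of median RNA to DNA barcode read ratio; higher means stronger binding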
Conditions: mean of both orientations
property.measured: interaction score

Worked cases, answers included:
Item: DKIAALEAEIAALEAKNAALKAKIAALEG [4H2109-AA] | interaction score: -0.719

Item: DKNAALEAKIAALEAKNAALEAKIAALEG [4H3381-AA] | interaction score: -1.38

Item: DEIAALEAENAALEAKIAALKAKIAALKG [4H174-AA] | interaction score: 1.44

Item: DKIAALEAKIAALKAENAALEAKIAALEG [4H2389-AA] | interaction score: -0.305

Item: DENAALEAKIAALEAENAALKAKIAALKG [4H1310-AA] | interaction score: -1.4

Item: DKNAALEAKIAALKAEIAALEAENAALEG [4H3395-AA] | interaction score: -1.33

[A] DEIAALKAEIAALEAENAALEAKNAALKG [4H536-AA]
[B] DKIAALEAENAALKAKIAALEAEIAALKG [4H2274-AA]
When their interaction score values are compared, which is larger, A or B ? Answer = label.
B

[A] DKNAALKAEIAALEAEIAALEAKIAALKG [4H3590-AA]
[B] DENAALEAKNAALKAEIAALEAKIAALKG [4H1478-AA]
[C] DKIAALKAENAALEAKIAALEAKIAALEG [4H2725-AA]
[D] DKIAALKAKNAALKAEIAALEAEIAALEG [4H3009-AA]
Order the 4 binders from highest to lowest interaction score. Return the labels ranked in the requested order, please.
C, D, B, A

[I] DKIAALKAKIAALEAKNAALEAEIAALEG [4H2865-AA]
[II] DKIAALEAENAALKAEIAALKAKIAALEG [4H2253-AA]
[III] DEIAALEAKNAALKAKIAALEAKIAALEG [4H485-AA]
Arrange items by their interaction score values in increasing order. Return the labels ranked in the requested order, please.
I, II, III

[I] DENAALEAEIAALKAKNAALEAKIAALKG [4H1142-AA]
[II] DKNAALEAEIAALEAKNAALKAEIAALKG [4H3130-AA]
[III] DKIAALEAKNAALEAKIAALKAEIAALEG [4H2473-AA]
[IV] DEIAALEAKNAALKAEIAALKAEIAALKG [4H458-AA]
Order the 4 binders from highest to lowest interaction score. Return the labels ranked in the requested order, please.
III, IV, I, II

[A] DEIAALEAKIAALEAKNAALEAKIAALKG [4H310-AA]
[B] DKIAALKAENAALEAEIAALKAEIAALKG [4H2698-AA]
When their interaction score values are compared, which is larger, A or B ? Answer = label.
B
(B: -0.113, A: -1.11)
